- EXPERIMENTAL_PROTOCOL: DPPH radical scavenging activity at 5 uM after 30 mins by spectrophotometric assay
- Assay type: functional
MEASUREMENT_LABEL: Activity (%)
One number for each entry, in %.

Note down Activity recorded for CC1=CC[C@H](C(C)(C)O[C@@H]2O[C@H](COC(=O)c3cc(O)c(O)c(O)c3)[C@@H](O)[C@H](O)[C@H]2O)CC1
24.5

Give Activity for C=CCc1cc(OC)c(O)c(O[C@@H]2O[C@H](COC(=O)c3cc(O)c(O)c(O)c3)[C@@H](O)[C@H](O)[C@H]2O)c1
26.8

Tell us which Activity value is on record for C=CCc1ccc(O[C@@H]2O[C@H](COC(=O)c3cc(O)c(O)c(O)c3)[C@@H](O)[C@H](O)[C@H]2O)c(OC)c1
31.7

Now look at this entry.
Give me measured Activity, please, for this compound: Cc1cc(C(C)(C)C)c(O)c(C(C)(C)C)c1
11.8

====

Can you tell me Activity for the items I'm about to list?
- EXPERIMENTAL_PROTOCOL: DPPH radical scavenging activity at 10 uM after 30 mins by spectrophotometric assay
- Format: functional
Answers are plain numbers, in %.

// worked examples, Activity included
Kindly indicate its recorded Activity. Item: CC1=CC[C@H](C(C)(C)O[C@@H]2O[C@H](COC(=O)c3cc(O)c(O)c(O)c3)[C@@H](O)[C@H](O)[C@H]2O)CC1
46.2

Tell me its Activity given Cc1cc(C(C)(C)C)c(O)c(C(C)(C)C)c1 as the entry.
16.7

Please give the documented Activity of CC1=CC[C@@H](C(C)(C)O[C@@H]2O[C@H](COC(=O)c3cc(O)c(O)c(O)c3)[C@@H](O)[C@H](O)[C@H]2O)CC1
48.4

Output Activity of C=CCc1ccc(O[C@@H]2O[C@H](COC(=O)c3cc(O)c(O)c(O)c3)[C@@H](O)[C@H](O)[C@H]2O)c(OC)c1
60.9

Read off the recorded Activity for Cc1c(C)c2c(c(C)c1O)CC[C@@](C)(CCC[C@H](C)CCC[C@H](C)CCCC(C)C)O2
23.4

For each entry beneath this line, provide reported Activity.
1. O=C(O)c1cc(O)c(O)c(O)c1
2. C=CCc1cc(OC)c(O)c(O[C@@H]2O[C@H](COC(=O)c3cc(O)c(O)c(O)c3)[C@@H](O)[C@H](O)[C@H]2O)c1
3. COc1cc(CC(CO)O[C@@H]2O[C@H](COC(=O)c3cc(O)c(O)c(O)c3)[C@@H](O)[C@H](O)[C@H]2O)ccc1O (mixture of isomers)

[61.6, 53.6, 56.9]

====

- EXPERIMENTAL_PROTOCOL: DPPH radical scavenging activity at 5 uM after 30 mins by spectrophotometric assay
- Format: functional
For each record, write down the corresponding Activity.

Please look at the items below and tell me Activity for each one, in order.
1. CC1=CC[C@@H](C(C)(C)O[C@@H]2O[C@H](COC(=O)c3cc(O)c(O)c(O)c3)[C@@H](O)[C@H](O)[C@H]2O)CC1
2. Cc1c(C)c2c(c(C)c1O)CC[C@@](C)(CCC[C@H](C)CCC[C@H](C)CCCC(C)C)O2

1. 26.2%
2. 14%

List the reported Activity of each compound below.
1. O=C(O)c1cc(O)c(O)c(O)c1
2. COc1cc(CC(CO)O[C@@H]2O[C@H](COC(=O)c3cc(O)c(O)c(O)c3)[C@@H](O)[C@H](O)[C@H]2O)ccc1O (mixture of isomers)

1: 34.9%; 2: 33.1%

Provenance of the data: ChEMBL document CHEMBL1142621
